Below, each entry is listed alongside its reported PBM 8-mer E-score.
# Test system: 2Sb-muMax20 (muMax20 with two 1,3-bis(methyl)benzene Cys staples, A13C/A17C and Q88C/A92C, C-terminal Lys)
# Method Description: PBM 8-mer E-score (E-score (rank enrichment, -0.5 to 0.5)); higher = stronger preferential binding
Over roughly 33,000 sequences, “E-score (rank enrichment, -0.5 to 0.5)” has its median near -0.0028; the highest 2% begin near 0.23. This is one part of a sample in which the highest values are shown more often than they occur.
// keep it numeric: no unit symbol after the value

Residue String: GAGGGGCA
Measurement Name: PBM 8-mer E-score
Value Reported: 0.0724
--
Residue String: AAACACAA
Measurement Name: PBM 8-mer E-score
Value Reported: 0.153
--
Residue String: ACACACAA
Measurement Name: PBM 8-mer E-score
Value Reported: 0.0979
--
Residue String: AAAGGGCT
Measurement Name: PBM 8-mer E-score
Value Reported: 0.0103
--
Residue String: AATGCATC
Measurement Name: PBM 8-mer E-score
Value Reported: 0.174
--
Residue String: CGATTCCC
Measurement Name: PBM 8-mer E-score
Value Reported: 0.142

Inquiry: PBM 8-mer E-score for "ATAGGAGG" ?
Reply text: -0.0435

Source listed as the supplement of paper PMC12636033.
